Organism: Rattus norvegicus
Experiment: Inhibition of rat recombinant geranylgeranyltransferase type I expressed in Escherichia coli assessed as residual enzyme activity for geranylgeranylation of K-Ras4B at 50 uM incubated for 30 mins in presence of [3H]GGPP by scintillation counting assay relative to control
observed-property: Activity (%)

COc1ccc([C@@H]2CC=C(C(=O)O)[C@H](c3ccc(Cl)cc3)N2S(=O)(=O)c2ccccc2)cc1 = 86.8
COc1ccc([C@@H]2C[C@@H](Sc3ccccc3)[C@H](C(=O)O)CN2S(=O)(=O)c2ccc(Cl)cc2)cc1 = 97.2
COc1ccc([C@@H]2CC=C(C(=O)O)[C@H](c3ccc(Br)cc3)N2S(=O)(=O)c2ccc(C)cc2)cc1OC = 74
COC(=O)c1ccccc1S(=O)(=O)N1[C@@H](c2ccc(C)cc2)C(C(=O)O)=CC[C@H]1c1ccc(C)cc1 = 89.4
